# System: SK-OV-3 ovarian
# protocol-summary: NCI-60 one-dose screen, 48 h (100 = growth as untreated, 0 = no growth, -100 = all killed)
# assay-conditions: 10 µM unless noted
About 83,000 compounds went through this panel and 20% of them were active in at least one assay; those are over-represented in the sample as a whole.
quantity: growth (%)

- compound: "COc1ccc2c(c1)C(=O)c1c-2c(=O)n(CCCCCCC(=O)NO)c2ccccc12"
  unit: "%"
  observed-result: -3.32
- compound: "O=C1c2nsnc2C(=O)c2c(F)c(F)c(F)c(F)c21"
  unit: "%"
  observed-result: 32.4
- compound: "CCCCC1Nc2nc(SC)n(C)c(=O)c2CN(Cc2ccccc2)C1=O (stereo unspecified)"
  unit: "%"
  observed-result: 93.8
- compound: "COc1ccc(C2=NNC(c3cc(Cc4ccc(O)c(C5CC(c6ccc(OC)cc6)=NN5)c4)ccc3O)C2)cc1 (stereo unspecified)"
  unit: "%"
  observed-result: 93.9
- compound: "O=C(/C=C/c1ccc(Cl)cc1)c1ccccc1"
  unit: "%"
  observed-result: 126
- compound: "CC(C)[C@H]1CC[C@H]2[C@@H](CC[C@H]3[C@](C)(CN)CCC[C@]23C)C1"
  unit: "%"
  observed-result: 111

###

# System: MCF7 breast
# protocol-summary: NCI-60 one-dose screen, 48 h (100 = growth as untreated, 0 = no growth, -100 = all killed)
# assay-conditions: 10 µM unless noted
This is part of a sample that, as a whole, favours compounds with a hit. Of some 83,000 tested, about 20% had one in any assay. The source made the active and inactive calls. How the source made its calls: active means growth percent below 10; inactive means the rest.
quantity: growth

- compound: "COc1ccc(-c2nnc(COc3ccc(NC(=O)Nc4cc(C(F)(F)F)cc(C(F)(F)F)c4)cc3F)o2)cc1"
  observed-result: "1.51% (active)"
- compound: "CCC(C)CC(C)C(=O)c1c(O)ccn(OC)c1=O (stereo unspecified)"
  observed-result: "74.3% (inactive)"
- compound: "CN(C)c1ccc2c(c1)/C(=N/O)c1ccccc1-2"
  observed-result: "19.9% (inactive)"
- compound: "O=C1OC(c2ccc(-c3ccccc3)cc2)=C/C1=C/c1cccs1"
  observed-result: "41.6% (inactive)"
- compound: "O=C(O)C(=O)O"
  observed-result: "98.4% (inactive)"
- compound: "Oc1[nH]c2ccc(Cl)cc2c1/C=c1/ccc2c(c1)N=C(c1ccc(C(F)(F)F)cc1)N=2"
  observed-result: "27.6% (inactive)"
- compound: "COC(=O)[C@]12CC[C@@H](C)[C@H](C)[C@@H]1C1=CC[C@@H]3[C@@]4(C)C=C(O)C(=O)[C@@]5(C)COC(=C54)C[C@@]3(C)[C@]1(C)CC2"
  observed-result: "-70.5% (active)"
- compound: "CCN(CC)c1ccc(N=Nc2cc(Cl)ccc2Cl)c(NC(=O)CCC(=O)O)c1"
  observed-result: "93.2% (inactive)"
- compound: "CC(C)[C@H]1CC[C@H]2[C@@H](CC[C@H]3[C@](C)(CN)CCC[C@]23C)C1"
  observed-result: "-55.8% (active)"
- compound: "Nc1nc(SCC2(CCl)COC2)c2[nH]cnc2n1"
  observed-result: "86.4% (inactive)"
- compound: "O=[N+]([O-])c1cnc(Sc2ccncn2)c([N+](=O)[O-])c1"
  observed-result: "56.1% (inactive)"

###

# Test system: M14 melanoma
# protocol-summary: NCI-60 one-dose screen, 48 h (100 = growth as untreated, 0 = no growth, -100 = all killed)
# assay-conditions: 10 µM unless noted
This is part of a sample that, as a whole, favours compounds with a hit. Of some 83,000 tested, about 20% had one in any assay.
quantity: growth (%)

- molecule: "O=C(Cn1ccnc1)NC(c1ccccc1)c1ccccc1"
  observed-result: 102
- molecule: "CCCc1nn(C)c2c(=O)[nH]c(-c3cc(S(=O)(=O)N4CCN(C)CC4)ccc3OCC)nc12"
  observed-result: 102
- molecule: "COc1ccc(C(=O)/C=C/c2c(Cl)nc3c(c(C)nn3-c3ccccc3)c2-c2ccc(Br)cc2)cc1"
  observed-result: 100
- molecule: "O=C1CN(CO)C(=O)CN1CO"
  observed-result: 104
- molecule: "NC(N)=NN=c1c(=O)c2ccccc2c1=O"
  observed-result: -90.8
- molecule: "CCC(c1ccccc1)c1noc(CCN(CC)CC)n1 (stereo unspecified)"
  observed-result: 96.7
- molecule: "CC1=CC(=O)C(C(C)=Nc2ccccc2Cl)C(=O)O1 (stereo unspecified)"
  observed-result: 107
- molecule: "CCCCCCC/C(=N\\N=C(N)N)c1ccc(O)cc1"
  observed-result: 24.9
- molecule: "Cn1cc(-c2csc(-c3c[nH]c4ncccc34)n2)c2cc(Br)cnc21"
  observed-result: 35.2
- molecule: "COC(=O)[C@]1(C(C)C)N[C@H](c2cn(-c3ccccc3)nc2-c2ccccc2)[C@@H]2C(=O)N(c3ccc(Cl)cc3)C(=O)[C@@H]21"
  observed-result: 87.6
- molecule: "O=C(Nc1nc(-c2ccc(Cl)cc2)cs1)c1cc(O)c(O)c(O)c1"
  observed-result: 23.2
- molecule: "CCCCOc1ccc(C(C)(C)c2ccc(OCCCC)cc2)cc1"
  observed-result: 104
- molecule: "C=CC1=C(C(=O)O)N2C(=O)[C@@H](NC(=O)/C(=N\\O)c3csc(N)n3)[C@H]2SC1 (stereo in doubt)"
  observed-result: 114
- molecule: "Cc1nn(-c2ccccc2)c2nc(Cl)c(/C=C/C(=O)c3ccccc3)c(-c3ccccc3)c12"
  observed-result: 90.1
- molecule: "Nc1ccc(C2=NN(c3ccccc3)C(c3ccc(Cl)cc3)C2)cc1 (stereo unspecified)"
  observed-result: 72.7
- molecule: "CCC(C)(C)C(=O)O[C@H]1C[C@@H](C)C=C2C=C[C@H](C)[C@H](CC[C@@H]3C[C@@H](O)CC(=O)O3)[C@H]21"
  observed-result: 59.3
- molecule: "COc1ccc(OC)c(/C=C/c2nc(=S)n(-c3ccc(Cl)cc3)[nH]2)c1"
  observed-result: 31
- molecule: "N#Cc1c(N)[nH]c(S)c1C#N"
  observed-result: 100
- molecule: "CSC1=Nc2c(c(C)c(-c3ccccc3)n2CCCN2CCCCC2)C2=NC(=O)C[C@H](C)N12"
  observed-result: 59.8
- molecule: "O=C(CSCC(=O)N/N=C/c1ccccc1O)N/N=C\\c1ccccc1O"
  observed-result: -4.57
- molecule: "CCN1C(=O)c2ccc3c4c(ccc(c24)C1=O)C(=O)N(CCCNCc1ccccc1OC)C3=O"
  observed-result: -92.8

###

# System: CAKI-1 renal
# protocol-summary: NCI-60 one-dose screen, 48 h (100 = growth as untreated, 0 = no growth, -100 = all killed)
# assay-conditions: 10 µM unless noted
Compounds without any hit were thinned out: in the full panel of roughly 83,000, 20% have a hit. Activity calls are given as the source filed them. Rule for the calls: active = growth percent below 10; inactive = the rest.

- structure-string: "Cc1c(C(N)=O)sc2ncn(CC(=O)Nc3ccc(Cl)cc3)c(=O)c12"
  tested-on: "CAKI-1 renal"
  growth: "40.6% (inactive)"
- structure-string: "Cc1nn(-c2ccccc2)c2nc3c(nc12)C(=O)CCC3"
  tested-on: "CAKI-1 renal"
  growth: "101% (inactive)"
- structure-string: "Cc1cc(C)c(OC(=O)CSc2nc3ccccc3c(=O)n2CCc2ccccc2)cc1C"
  tested-on: "CAKI-1 renal"
  growth: "72.6% (inactive)"
- structure-string: "Cc1cc2cn3c4cccnc4[nH]c(=O)c3c2cc1C"
  tested-on: "CAKI-1 renal"
  growth: "75.7% (inactive)"
- structure-string: "O=C(/C=C/c1ccc(O)c(O)c1)N1CCN(c2ccc(Cl)cc2)CC1"
  tested-on: "CAKI-1 renal"
  growth: "50.5% (inactive)"
- structure-string: "Cc1ccccc1-c1cc(Cc2ccccc2O)c(=O)[nH]n1"
  tested-on: "CAKI-1 renal"
  growth: "88.8% (inactive)"

###

# Test system: SF-295 CNS
# protocol-summary: NCI-60 one-dose screen, 48 h (100 = growth as untreated, 0 = no growth, -100 = all killed)
# assay-conditions: 10 µM unless noted
The panel holds about 83,000 compounds, 20% with a hit somewhere; the sample as a whole holds those more often.
// reported growth per item
quantity: growth (%)

- compound: "CC(C)[O-].CC(C)[O-].CN(CCN(C)Cc1cc(F)cc(F)c1[O-])Cc1cc(F)cc(F)c1[O-].[Ti+4]"
  unit: "%"
  observed-result: -9.78
- compound: "CN(C)c1ccc(/C=C\\c2ccnc3ccccc23)cc1"
  unit: "%"
  observed-result: 61.6
- compound: "O=C(Nc1ccc(Oc2ccc(NC(=O)Nc3ccc([N+](=O)[O-])cc3)cc2)cc1)Nc1ccc([N+](=O)[O-])cc1"
  unit: "%"
  observed-result: 22
- compound: "CC(O)c1nc2c(c(=O)n(C)c(=O)n2C)n1C (stereo not given)"
  unit: "%"
  observed-result: 108
- compound: "COc1cc(-c2cc(C(=O)Nc3nc4ccccc4s3)nc3cc(-c4ccccc4)nn23)cc(OC)c1OC"
  unit: "%"
  observed-result: 53
- compound: "Clc1ccc([C@@H]2C[C@@H]3Cc4cc(Br)c5ccccc5c4N2O3)c(Cl)c1"
  unit: "%"
  observed-result: 65.5
- compound: "O=NC1CC=CCC1c1ccccc1 (stereo not given)"
  unit: "%"
  observed-result: 122
- compound: "O=C(Nc1cccc2ccccc12)c1cc2c(cc1Br)OCO2"
  unit: "%"
  observed-result: 107
- compound: "CCCCCCCCCCCCNc1ncnc2[nH]ncc12"
  unit: "%"
  observed-result: 54.8
- compound: "O=C(Nc1ncc([N+](=O)[O-])s1)c1cccc([N+](=O)[O-])c1"
  unit: "%"
  observed-result: 23.3

These measurements were taken from PubChem BioAssay (NCI).
